Across several publications, the following Ki results were reported for Carbonic anhydrase 4 (Bos taurus, UniProt Q95323).
One number for each entry, in nM.

INSERT INTO results (smiles_structure, readout_type, value_measured) VALUES
  ('NS(=O)(=O)c1ccc(NC(=O)CN(CCN(CC(=O)O)c2ccccc2O)c2ccccc2O)cc1', 'Ki', 320),
  ('CN(CC(=O)Nc1ccc(S(N)(=O)=O)cc1Cl)C(=N)N', 'Ki', 60),
  ('NS(=O)(=O)c1nnc(NC(=O)CCNC(=O)CN(CCN(CC(=O)O)c2ccccc2O)c2ccccc2O)s1', 'Ki', 35),
  ('NCC(=O)NS(=O)(=O)c1nc2ccc(OCCO)cc2s1', 'Ki', 23),
  ('NS(=O)(=O)c1cccc(NC(=O)CN(CCN(CCN(CC(=O)O)CC(=O)O)CC(=O)O)CC(=O)O)c1', 'Ki', 500),
  ('C[C@H](CCC(=O)Nc1ccc(S(N)(=O)=O)cc1Br)[C@H]1CC[C@H]2[C@@H]3[C@H](O)C[C@@H]4C[C@H](O)CC[C@]4(C)[C@H]3C[C@H](O)[C@]12C', 'Ki', 60);

I'm hoping you can list Ki for every compound here, please.
1. NS(=O)(=O)c1ccc(NC(=O)CN(CCOCCOCCN(CC(=O)O)CC(=O)O)CC(=O)O)cc1
2. NS(=O)(=O)c1ccc(CNC(=O)CN(CCN(CC(=O)O)CC(=O)NCc2ccc(S(N)(=O)=O)cc2)CC(=O)O)cc1

[170, 10]

----------
Across several publications, the following Ki results were reported for Carbonic anhydrase 4 (Bos taurus).
Class (required): determined from Ki; valid ranges are low band = under 20 nM, middle band = from 20 nM up to 100 nM, high band = 100 nM and over

Reference set, count: 4
INSERT INTO measurements (compound, qualitative_label) VALUES
  ('NS(=O)(=O)c1ccc(NNC(=O)CNCCNCC(=O)O)cc1', 'high band'),
  ('CCc1cc(-c2ccccc2)cc(CC)[n+]1CC(=O)Nc1ccc(S(=O)(=O)/N=c2/sc(S(N)(=O)=O)nn2C)cc1.[O-][Cl+3]([O-])([O-])[O-]', 'low band'),
  ('C[C@H](CCC(=O)OCCc1ccc(S(N)(=O)=O)cc1)[C@H]1CC[C@H]2[C@@H]3CC[C@@H]4C[C@H](O)CC[C@]4(C)[C@H]3CC[C@]12C', 'high band'),
  ('NCC(=O)Nc1ccc(S(N)(=O)=O)cc1', 'high band');

Quick check: band for Cc1ccc(S(=O)(=O)NO)cc1
high band

Quick check: band for CCCC(CCC)C(=O)Nc1ccc2nc(S(N)(=O)=O)sc2c1
low band

----------
Sequence of the target: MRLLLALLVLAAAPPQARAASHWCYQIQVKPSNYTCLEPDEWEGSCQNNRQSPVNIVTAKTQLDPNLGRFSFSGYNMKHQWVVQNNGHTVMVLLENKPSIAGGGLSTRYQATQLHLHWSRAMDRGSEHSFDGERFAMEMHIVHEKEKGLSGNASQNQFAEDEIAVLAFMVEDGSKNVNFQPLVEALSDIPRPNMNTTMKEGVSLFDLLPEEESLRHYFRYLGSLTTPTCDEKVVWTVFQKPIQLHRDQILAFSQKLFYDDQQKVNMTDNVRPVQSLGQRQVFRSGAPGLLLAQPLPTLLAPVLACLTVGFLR
Across several publications, the following Ki results were reported for the protein given by its sequence.
Give bare numbers, in nM.

# count of solved cases: 4
INSERT INTO results (compound, readout_type, value_measured) VALUES
  ('NS(=O)(=O)c1ccc(CCOC(=O)c2c(F)c(F)c(F)c(F)c2F)cc1', 'Ki', 400),
  ('NS(=O)(=O)c1ccc(NC(=O)c2c(F)c(F)cc(F)c2F)cc1', 'Ki', 400),
  ('COc1ccc(S(=O)(=O)NO)cc1', 'Ki', 110),
  ('NS(=O)(=O)c1nnc(NC(=O)CN(CCN(CC(=O)O)CC(=O)O)CC(=O)O)s1', 'Ki', 37);

I'm hoping you can list Ki for every compound here, please.
1. C[C@H](CCC(=O)OCCOc1ccc2nc(S(N)(=O)=O)sc2c1)[C@H]1CC[C@H]2[C@@H]3[C@H](O)C[C@@H]4C[C@H](O)CC[C@]4(C)[C@H]3C[C@H](O)[C@]12C
2. C[C@H](CCC(=O)Nc1ccc(S(N)(=O)=O)cc1F)[C@H]1CC[C@H]2[C@@H]3[C@H](O)C[C@@H]4C[C@H](O)CC[C@]4(C)[C@H]3C[C@H](O)[C@]12C

1. 10
2. 133

----------
Across several publications, the following pKi results were reported for UniProtKB Q95323.
One number for each entry, as −log10 of the molar value.

# count of solved cases: 3
INSERT INTO assay_data (smiles_structure, readout_type, value_measured) VALUES
  ('Cc1cc(-c2ccccc2)cc(C)[n+]1CC(=O)Nc1cc(Cl)c(S(N)(=O)=O)cc1S(N)(=O)=O', 'pKi', 7.52),
  ('C[C@H](CCC(=O)Nc1ccc2nc(S(N)(=O)=O)sc2c1)[C@H]1CC[C@H]2[C@@H]3CC[C@@H]4C[C@H](O)CC[C@]4(C)[C@H]3C[C@H](O)[C@]12C', 'pKi', 7.92),
  ('C[C@H](CCC(=O)Nc1ccc(S(N)(=O)=O)cc1F)[C@H]1CC[C@H]2[C@@H]3CC[C@@H]4C[C@H](O)CC[C@]4(C)[C@H]3C[C@H](O)[C@]12C', 'pKi', 7.02);

Now for a further compound.
Give UniProtKB Q95323 pKi for NS(=O)(=O)c1ccc(CNC(=O)CN(CCOCCOCCN(CC(=O)O)CC(=O)O)CC(=O)O)cc1
7.32

----------
Across several publications, the following pKi results were reported for Carbonic anhydrase 4 (Bos taurus, UniProt Q95323).
Give bare numbers, as −log10 of the molar value.

INSERT INTO measurements (smiles_structure, readout_type, value_measured) VALUES
  ('C[C@H](CCC(=O)OCCOc1ccc2nc(S(N)(=O)=O)sc2c1)[C@H]1CC[C@H]2[C@@H]3C(=O)C[C@@H]4CC(=O)CC[C@]4(C)[C@H]3CC(=O)[C@]12C', 'pKi', 8.22),
  ('Nc1ccc2nc(S(N)(=O)=O)sc2c1', 'pKi', 7.72),
  ('NCC(=O)NCC(=O)Nc1ccc(S(=O)(=O)Nc2ccc(S(N)(=O)=O)cc2)cc1', 'pKi', 7.18);

Now for a further compound.
Give Carbonic anhydrase 4 (Bos taurus, UniProt Q95323) pKi for NS(=O)(=O)c1ccc(NC(=O)CN(CCN(CC(=O)O)CC(=O)O)CC(=O)O)c(F)c1
7.40

----------
Target chain: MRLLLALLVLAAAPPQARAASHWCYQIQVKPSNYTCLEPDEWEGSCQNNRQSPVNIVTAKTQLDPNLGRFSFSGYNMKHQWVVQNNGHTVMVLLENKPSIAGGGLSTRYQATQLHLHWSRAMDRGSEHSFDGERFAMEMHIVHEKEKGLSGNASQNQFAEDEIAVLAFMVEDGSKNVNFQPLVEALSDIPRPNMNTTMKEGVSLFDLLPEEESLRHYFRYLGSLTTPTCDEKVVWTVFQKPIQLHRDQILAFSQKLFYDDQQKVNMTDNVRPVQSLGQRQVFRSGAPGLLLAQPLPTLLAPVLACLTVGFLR
Across several publications, the following Ki results were reported for the protein given by its sequence.
Answers are plain numbers, in nM.

INSERT INTO measurements (smiles_structure, value_measured) VALUES
  ('CC(C)(C)C(=O)Nc1ccc(S(N)(=O)=O)cc1', 2550),
  ('NS(=O)(=O)c1cc(S(N)(=O)=O)c(NC(=O)CN(CCOCCOCCN(CC(=O)O)CC(=O)O)CC(=O)O)c(Cl)c1Cl', 35),
  ('O=C(CNS(=O)(=O)C(F)(F)C(F)(F)C(F)(F)C(F)(F)F)NO', 16);

I'm hoping you can list Ki for every compound here, please.
1. O=S(=O)(NO)c1ccc(Cl)cc1
2. NCCCC(=O)NCCC(=O)Nc1nnc(S(N)(=O)=O)s1
3. NS(=O)(=O)c1ccc(CCOC(=O)CN(CCN(CC(=O)O)CC(=O)O)CC(=O)O)cc1
4. NS(=O)(=O)c1ccc(CNC(=O)CNCCNCC(=O)O)cc1
5. NS(=O)(=O)c1ccc(NC(=O)CN(CCN(CC(=O)O)CC(=O)O)CC(=O)O)cc1
6. CCCC(CCC)C(=O)Nc1ccc(S(N)(=O)=O)cc1
7. C[C@H](CCC(=O)Nc1c(S(N)(=O)=O)cc(S(N)(=O)=O)c(Cl)c1Cl)[C@H]1CC[C@H]2[C@@H]3[C@H](O)C[C@@H]4C[C@H](O)CC[C@]4(C)[C@H]3CC[C@]12C
8. NS(=O)(=O)c1nnc(NC(=O)CCNC(=O)c2c(F)c(F)c(F)c(F)c2F)s1

1: 120; 2: 15; 3: 310; 4: 245; 5: 330; 6: 630; 7: 95; 8: 10

I'm hoping you can list Ki for every compound here, please.
1. CCc1cc(-c2ccccc2)cc(CC)[n+]1CC(=O)Nc1cc(C(F)(F)F)c(S(N)(=O)=O)cc1S(N)(=O)=O
2. C[C@H](CCC(=O)Nc1ccc(S(N)(=O)=O)cc1F)[C@H]1CC[C@H]2[C@@H]3[C@@H](O)C[C@@H]4C[C@H](O)CC[C@]4(C)[C@H]3CC[C@]12C

[33, 24]

I'm hoping you can list Ki for every compound here, please.
1. CC1(C)O[C@@H]2[C@@H](CO[C@@]3(COC(=O)NS(N)(=O)=O)OC(C)(C)O[C@@H]23)O1
2. CC(C)c1cc(-c2ccccc2)cc(C(C)C)[n+]1CC(=O)NCCc1ccc(S(N)(=O)=O)cc1
3. C[C@H](CCC(=O)Nc1ccc(S(N)(=O)=O)cc1Br)[C@H]1CC[C@H]2[C@@H]3CC[C@@H]4C[C@H](O)CC[C@]4(C)[C@H]3C[C@H](O)[C@]12C
4. Cn1nc(S(N)(=O)=O)s/c1=N/C(=O)CN(CCOCCOCCN(CC(=O)O)CC(=O)/N=c1/sc(S(N)(=O)=O)nn1C)CC(=O)O

[45, 70, 50, 7]
